assayTarget: Indoleamine 2,3-dioxygenase 1 (Homo sapiens, UniProt P14902)
Sequence (P14902 whole entry): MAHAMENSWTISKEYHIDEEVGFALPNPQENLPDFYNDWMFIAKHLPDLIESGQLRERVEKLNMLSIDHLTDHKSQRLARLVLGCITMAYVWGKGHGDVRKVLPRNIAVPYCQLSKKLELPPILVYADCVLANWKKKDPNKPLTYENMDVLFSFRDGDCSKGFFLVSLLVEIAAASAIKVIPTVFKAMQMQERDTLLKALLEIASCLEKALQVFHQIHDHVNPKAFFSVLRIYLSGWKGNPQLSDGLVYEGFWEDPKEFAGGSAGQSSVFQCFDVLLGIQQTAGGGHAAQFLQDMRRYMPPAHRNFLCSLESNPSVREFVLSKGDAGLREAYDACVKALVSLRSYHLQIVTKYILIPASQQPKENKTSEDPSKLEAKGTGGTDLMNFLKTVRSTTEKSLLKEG
experimentalDetails: Inhibition of IDO1 (unknown origin) using tryptophan as substrate preincubated for 15 mins followed by substrate addition by high-throughput screening assay
propertyLabel: IC50
Please make sure the unit comes right after the number.

stdin: Quote IC50 with test system Indoleamine 2,3-dioxygenase 1 (Homo sapiens, UniProt P14902) for `CC(C)(C)c1ccccc1Oc1ccc(-c2cccc(C(=O)O)c2)cc1NC(=O)Nc1ccc(OC(F)(F)F)cc1`
stdout: 87 nM

* * *

assayTarget: Cytochrome P450 3A4 (Homo sapiens, UniProt P08684)
Sequence (P08684 whole entry): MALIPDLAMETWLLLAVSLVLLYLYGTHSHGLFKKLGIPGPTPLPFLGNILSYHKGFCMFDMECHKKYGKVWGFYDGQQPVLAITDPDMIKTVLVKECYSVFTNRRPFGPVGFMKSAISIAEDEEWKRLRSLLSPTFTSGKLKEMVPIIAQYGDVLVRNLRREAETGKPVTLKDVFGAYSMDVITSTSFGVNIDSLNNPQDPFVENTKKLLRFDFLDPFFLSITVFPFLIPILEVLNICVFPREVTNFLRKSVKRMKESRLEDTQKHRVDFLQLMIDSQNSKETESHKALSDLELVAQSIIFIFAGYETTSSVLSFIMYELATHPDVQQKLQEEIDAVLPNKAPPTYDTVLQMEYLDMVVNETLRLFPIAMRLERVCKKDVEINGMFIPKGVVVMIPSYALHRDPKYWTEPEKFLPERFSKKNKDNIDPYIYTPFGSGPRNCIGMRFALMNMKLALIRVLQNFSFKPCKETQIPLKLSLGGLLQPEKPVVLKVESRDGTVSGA
experimentalDetails: Inhibition of CYP3A4 (unknown origin) using BFC as substrate
Assay type: ADME
pIC50: −log10 of the molar value.
propertyLabel: pIC50

Past entries and their recorded results:
{"structureSmilesString": "COc1ccc(-c2ccc(Oc3cccc4c3CCCC4)c(NC(=O)Nc3ccccc3C)c2)cc1C(=O)O", "measuredResult": "< 5.52"}
{"structureSmilesString": "COc1ccc(-c2ccc(Oc3cccc4c3CCCC4)c(NC(=O)Nc3cccc(C)c3)c2)cc1C(=O)O", "measuredResult": "< 5.52"}
{"structureSmilesString": "COc1ccc(-c2ccc(Oc3cccc4c3CCCC4)c(NC(=O)Nc3ccccc3Cl)c2)cc1C(=O)O", "measuredResult": "< 5.52"}

Now take the following molecule into account.
stdin: Return pIC50 for the following molecule: `CC(C)(C)c1ccccc1Oc1ccc(-c2cccc(C(=O)O)c2)cc1NC(=O)Nc1ccc(OC(F)(F)F)cc1`
stdout: < 5.30

* * *

assayTarget: Cytochrome P450 1A2 (Homo sapiens, UniProt P05177)
Sequence (P05177 whole entry): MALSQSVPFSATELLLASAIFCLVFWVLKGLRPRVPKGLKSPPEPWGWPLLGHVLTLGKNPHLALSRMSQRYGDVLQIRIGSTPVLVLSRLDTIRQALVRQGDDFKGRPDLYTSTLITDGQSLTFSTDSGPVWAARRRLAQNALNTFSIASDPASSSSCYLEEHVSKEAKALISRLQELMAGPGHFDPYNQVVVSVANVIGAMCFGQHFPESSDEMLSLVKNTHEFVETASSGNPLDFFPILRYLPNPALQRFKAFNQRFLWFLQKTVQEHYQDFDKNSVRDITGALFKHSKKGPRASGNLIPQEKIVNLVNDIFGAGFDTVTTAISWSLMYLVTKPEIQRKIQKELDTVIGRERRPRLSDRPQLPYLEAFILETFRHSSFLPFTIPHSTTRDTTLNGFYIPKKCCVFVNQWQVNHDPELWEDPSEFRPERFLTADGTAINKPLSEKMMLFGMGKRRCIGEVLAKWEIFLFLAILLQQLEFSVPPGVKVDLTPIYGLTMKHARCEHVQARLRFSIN
propertyLabel: IC50

{"structureSmilesString": "COc1ccc(-c2ccc(Oc3cccc4c3CCCC4)c(NC(=O)Nc3cccc(C)c3)c2)cc1C(=O)O", "IC50": "> 3 µM"}
{"structureSmilesString": "COc1ccc(-c2ccc(Oc3cccc4c3CCCC4)c(NC(=O)Nc3ccccc3C)c2)cc1C(=O)O", "IC50": "> 3 µM"}

Here is another compound to look at.
stdin: Quote IC50 reported for `COc1ccc(-c2ccc(Oc3cccc4c3CCCC4)c(NC(=O)Nc3ccccc3Cl)c2)cc1C(=O)O` please.
stdout: > 3 µM

* * *

experimentalDetails: Metabolic stability in human liver microsomes assessed as parent compound remaining at 0.5 uM after 10 mins
Type: ADME, microsome
measurementSetup: read-out: Stability
propertyLabel: remaining at 10 min, 0.5 µM (%)
Your answer should be a plain number; it is taken to be in %.

Sample answers from the record:
{"structureSmilesString": "COc1ccc(-c2ccc(Oc3cccc4c3CCCC4)c(NC(=O)Nc3ccccc3)c2)cc1C(=O)O", "remaining at 10 min, 0.5 µM / %": 80}
{"structureSmilesString": "COc1ccc(-c2ccc(Oc3cccc4c3CCCC4)c(NC(=O)Nc3ccccc3Cl)c2)cc1C(=O)O", "remaining at 10 min, 0.5 µM / %": 74}
{"structureSmilesString": "COc1ccc(-c2ccc(Oc3cccc4c3CCCC4)c(NC(=O)Nc3ccc(C)cc3)c2)cc1C(=O)O", "remaining at 10 min, 0.5 µM / %": 100}
{"structureSmilesString": "COc1ccc(-c2ccc(Oc3cccc4c3CCCC4)c(NC(=O)Nc3cccc(C)c3)c2)cc1C(=O)O", "remaining at 10 min, 0.5 µM / %": 84}
{"structureSmilesString": "COc1ccc(-c2ccc(Oc3cccc4c3CCCC4)c(NC(=O)Nc3ccccc3C)c2)cc1C(=O)O", "remaining at 10 min, 0.5 µM / %": 41}

Alright, here's another compound for you.
stdin: Answer with the recorded remaining at 10 min, 0.5 µM for the compound listed here: `COc1ccc(-c2ccc(Oc3cccc4c3CCCC4)c(NC(=O)Nc3ccccc3F)c2)cc1C(=O)O`
stdout: 95

* * *

Listed here are molecules together with their documented remaining at 10 min, 0.5 µM.
experimentalDetails: Metabolic stability in mouse liver microsomes assessed as parent compound remaining at 0.5 uM after 10 mins
Type: ADME, microsome
measurementSetup: read-out: Stability
Provide only the numeric value, understood in %.

// known answers, use as guide
{"structureSmilesString": "COc1ccc(-c2ccc(Oc3cccc4c3CCCC4)c(NC(=O)Nc3ccccc3C)c2)cc1C(=O)O", "propertyLabel": "remaining at 10 min, 0.5 µM", "unitSpec": "%", "measuredResult": 70}
{"structureSmilesString": "COc1ccc(-c2ccc(Oc3cccc4c3CCCC4)c(NC(=O)Nc3cccc(C)c3)c2)cc1C(=O)O", "propertyLabel": "remaining at 10 min, 0.5 µM", "unitSpec": "%", "measuredResult": 86}
{"structureSmilesString": "COc1ccc(-c2ccc(Oc3cccc4c3CCCC4)c(NC(=O)Nc3ccccc3F)c2)cc1C(=O)O", "propertyLabel": "remaining at 10 min, 0.5 µM", "unitSpec": "%", "measuredResult": 77}
{"structureSmilesString": "COc1ccc(-c2ccc(Oc3cccc4c3CCCC4)c(NC(=O)Nc3ccccc3)c2)cc1C(=O)O", "propertyLabel": "remaining at 10 min, 0.5 µM", "unitSpec": "%", "measuredResult": 96}
{"structureSmilesString": "COc1ccc(-c2ccc(Oc3cccc4c3CCCC4)c(NC(=O)Nc3ccc(C)cc3)c2)cc1C(=O)O", "propertyLabel": "remaining at 10 min, 0.5 µM", "unitSpec": "%", "measuredResult": 69}

stdin: # return recorded remaining at 10 min, 0.5 µM for entry `COc1ccc(-c2ccc(Oc3cccc4c3CCCC4)c(NC(=O)Nc3ccccc3Cl)c2)cc1C(=O)O`
stdout: 74

* * *

assayTarget: Cytochrome P450 2D6 (Homo sapiens, UniProt P10635)
Sequence (P10635 whole entry): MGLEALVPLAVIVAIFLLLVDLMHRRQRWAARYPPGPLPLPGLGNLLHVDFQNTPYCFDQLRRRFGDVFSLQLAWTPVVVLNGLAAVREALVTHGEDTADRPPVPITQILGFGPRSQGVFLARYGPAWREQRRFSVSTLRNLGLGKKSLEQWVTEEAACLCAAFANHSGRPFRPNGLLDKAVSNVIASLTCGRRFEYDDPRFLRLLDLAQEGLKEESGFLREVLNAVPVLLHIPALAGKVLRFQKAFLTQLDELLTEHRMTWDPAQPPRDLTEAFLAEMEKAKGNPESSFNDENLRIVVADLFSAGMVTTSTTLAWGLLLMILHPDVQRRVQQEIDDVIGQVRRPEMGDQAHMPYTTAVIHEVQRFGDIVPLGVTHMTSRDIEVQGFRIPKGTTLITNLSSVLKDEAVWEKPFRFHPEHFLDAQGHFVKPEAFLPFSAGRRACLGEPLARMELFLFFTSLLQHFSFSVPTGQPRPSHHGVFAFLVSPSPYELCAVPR
propertyLabel: IC50

stdin: Item `COc1ccc(-c2ccc(Oc3cccc4c3CCCC4)c(NC(=O)Nc3ccccc3C)c2)cc1C(=O)O` : provide IC50
stdout: > 3 µM

* * *

assayTarget: Cytochrome P450 3A4 (Homo sapiens, UniProt P08684)
experimentalDetails: Inhibition of CYP3A4 (unknown origin) using BZR as substrate
Type: ADME
pIC50: −log10 of the molar value.
propertyLabel: pIC50

stdin: Quickly give me recorded pIC50 for `COc1ccc(-c2ccc(Oc3cccc4c3CCCC4)c(NC(=O)Nc3ccccc3Cl)c2)cc1C(=O)O`
stdout: < 5.52

stdin: Item `COc1ccc(-c2ccc(Oc3cccc4c3CCCC4)c(NC(=O)Nc3ccccc3C)c2)cc1C(=O)O` : provide pIC50
stdout: < 5.52

stdin: For the molecule `CC(C)(C)c1ccccc1Oc1ccc(-c2cccc(C(=O)O)c2)cc1NC(=O)Nc1ccc(OC(F)(F)F)cc1` , give its measured pIC50 value.
stdout: < 5.30

stdin: Give a short answer stating reported pIC50 for `COc1ccc(-c2ccc(Oc3cccc4c3CCCC4)c(NC(=O)Nc3cccc(C)c3)c2)cc1C(=O)O` .
stdout: < 5.52

* * *

Below is a list of entries, each paired with its recorded pIC50 value.
assayTarget: Cytochrome P450 2B6 (Homo sapiens)
Sequence (P20813 whole entry): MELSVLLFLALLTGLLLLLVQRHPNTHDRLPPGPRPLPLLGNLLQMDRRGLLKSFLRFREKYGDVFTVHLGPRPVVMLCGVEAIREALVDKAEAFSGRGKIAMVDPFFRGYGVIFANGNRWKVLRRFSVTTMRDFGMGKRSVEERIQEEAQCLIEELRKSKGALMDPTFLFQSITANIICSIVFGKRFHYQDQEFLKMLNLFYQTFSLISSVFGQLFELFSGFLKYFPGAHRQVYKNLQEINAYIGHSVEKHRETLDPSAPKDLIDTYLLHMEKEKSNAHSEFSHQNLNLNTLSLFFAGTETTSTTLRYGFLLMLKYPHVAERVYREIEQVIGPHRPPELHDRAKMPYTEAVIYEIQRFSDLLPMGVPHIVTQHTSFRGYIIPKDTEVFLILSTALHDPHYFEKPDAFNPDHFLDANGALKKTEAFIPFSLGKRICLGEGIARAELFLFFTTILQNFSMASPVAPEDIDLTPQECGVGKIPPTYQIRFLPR
pIC50: −log10 of the molar value.

{"structureSmilesString": "COc1ccc(-c2ccc(Oc3cccc4c3CCCC4)c(NC(=O)Nc3ccccc3Cl)c2)cc1C(=O)O", "measuredResult": "< 5.52"}

Could you now look at the following compound, please?
stdin: Recall the reported pIC50 of `CC(C)(C)c1ccccc1Oc1ccc(-c2cccc(C(=O)O)c2)cc1NC(=O)Nc1ccc(OC(F)(F)F)cc1` on Cytochrome P450 2B6 (Homo sapiens) and write it down.
stdout: < 5.30
